Target: T1, estrogen receptor (ER) α as a carboxy-terminal fusion to the Gal4-activation domain (yeast, UniProt P03372 1-595, limits assumed); further: test concentration or dose not given here
T1 sequence (looked up): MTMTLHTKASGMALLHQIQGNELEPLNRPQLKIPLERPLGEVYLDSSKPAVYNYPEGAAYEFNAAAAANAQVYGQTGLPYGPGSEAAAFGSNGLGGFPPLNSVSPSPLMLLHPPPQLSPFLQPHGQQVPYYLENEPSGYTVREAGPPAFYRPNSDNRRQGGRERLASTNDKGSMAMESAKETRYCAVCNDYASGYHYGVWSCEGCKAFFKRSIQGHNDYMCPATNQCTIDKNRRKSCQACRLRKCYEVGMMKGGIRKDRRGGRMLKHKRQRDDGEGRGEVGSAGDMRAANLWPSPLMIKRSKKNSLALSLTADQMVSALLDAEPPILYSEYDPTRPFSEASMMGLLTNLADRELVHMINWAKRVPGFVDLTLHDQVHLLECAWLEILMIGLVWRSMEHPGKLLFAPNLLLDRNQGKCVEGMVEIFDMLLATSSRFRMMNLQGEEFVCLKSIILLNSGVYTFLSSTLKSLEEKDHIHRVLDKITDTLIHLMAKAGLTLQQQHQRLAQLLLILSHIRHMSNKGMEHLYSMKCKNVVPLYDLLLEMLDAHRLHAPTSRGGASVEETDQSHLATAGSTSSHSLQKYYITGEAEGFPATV
Assay: cell-based or functional assay
Please provide measured Fold Induction (ligand-induced β-galactosidase, two-hybrid) for the entries that follow.
Numbers only, in fold.

Below are some binders; for each one, tell me its Fold Induction (ligand-induced β-galactosidase, two-hybrid).
1. B1A1 (peptide) MKLLSSIEQACDICRLKKLKCSKEKPKCAKCLKNNWECRYSPKTKRSPLTRAHLTEVESRLERLEQLFLLIFPREDLDMILKMDSLQDIKALLTGLFVQDNVNKDAVTDRLASVETDMPLTLRQHRISATSSSEESSNKGQRQLTVSEFCPVGLLVHLLMQ
2. B3E2 (peptide) MKLLSSIEQACDICRLKKLKCSKEKPKCAKCLKNNWECRYSPKTKRSPLTRAHLTEVESRLERLEQLFLLIFPREDLDMILKMDSLQDIKALLTGLFVQDNVNKDAVTDRLASVETDMPLTLRQHRISATSSSEESSNKGQRQLTVSEFGGSVLLRELLCCYDALEPTTTR

Reply:
[11, 3.5]

Please state Fold Induction (ligand-induced β-galactosidase, two-hybrid) for every binder in the list that follows.
1. B5A2 (peptide) MKLLSSIEQACDICRLKKLKCSKEKPKCAKCLKNNWECRYSPKTKRSPLTRAHLTEVESRLERLEQLFLLIFPREDLDMILKMDSLQDIKALLTGLFVQDNVNKDAVTDRLASVETDMPLTLRQHRISATSSSEESSNKGQRQLTVSEFGCSAILRYLLRSPRDLDLQPS
2. B6A1 (peptide) MKLLSSIEQACDICRLKKLKCSKEKPKCAKCLKNNWECRYSPKTKRSPLTRAHLTEVESRLERLEQLFLLIFPREDLDMILKMDSLQDIKALLTGLFVQDNVNKDAVTDRLASVETDMPLTLRQHRISATSSSEESSNKGQRQLTVSEFTGSRLLLKLLRFPDSSTCSQA
3. B4F6 (peptide) MKLLSSIEQACDICRLKKLKCSKEKPKCAKCLKNNWECRYSPKTKRSPLTRAHLTEVESRLERLEQLFLLIFPREDLDMILKMDSLQDIKALLTGLFVQDNVNKDAVTDRLASVETDMPLTLRQHRISATSSSEESSNKGQRQLTVSEFSGVPILHMLLMLPSSLDLQPS

Reply:
[3, 3.5, 5]
